test: recombinant UMI read abundance after kanamycin selection (control-corrected) (log10(CPM+1)); higher = more efficient recombination; extreme values may be limits of the assay; sequences stand for … in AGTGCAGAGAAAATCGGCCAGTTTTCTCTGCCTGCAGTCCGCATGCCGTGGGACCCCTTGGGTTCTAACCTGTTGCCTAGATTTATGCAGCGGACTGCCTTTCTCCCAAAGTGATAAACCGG…AGGTTGGTTTCACT; site = the 11-nt donor
Catalogue of recombinant UMI read abundance (log10) values
Number only, no unit.

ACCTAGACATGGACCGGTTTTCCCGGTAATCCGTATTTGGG (site AGCTAGACTCC); 0.0336
GACACGCCATGGACCGGTTTTCCCGGTAATCCGTATTTGTA (site GTCACGCCTTA); 0.0098
GGACGCTCATGGACCGGTTTTCCCGGTAATCCGTATTTGAG (site GGACGCTCTCT); 1.55

Sample TGTTAGGCATGGACCGGTTTTCCCGGTAATCCGTATTTGGT (site TGCTAGGCTAC) — what was its recombinant UMI read abundance (log10)?
0.304

Also ACTAGTGCATGGACCGGTTTTCCCGGTAATCCGTATTTGAT (site ACTAGTGCTAA) , if possible.
0.0209

Try this sequence too: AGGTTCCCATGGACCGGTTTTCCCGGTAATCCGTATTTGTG (site AGGTTCCCTCT)
0.0108

What do you have for CACTGCTCATGGACCGGTTTTCCCGGTAATCCGTATTTGAA (site CAATGCTCTTT) ?
0.0153

Next entry: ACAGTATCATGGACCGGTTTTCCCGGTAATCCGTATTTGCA (site GCAATATCTTG)
1.63

Cool, now TGTACACCATGGACCGGTTTTCCCGGTAATCCGTATTTGTC (site TGTACACCTGT)
0

---

test: recombinant barcode read abundance after kanamycin selection (control-corrected) (log10(CPM+1)); higher = more efficient recombination; sequences stand for … in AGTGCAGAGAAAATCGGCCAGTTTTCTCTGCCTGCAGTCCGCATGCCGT…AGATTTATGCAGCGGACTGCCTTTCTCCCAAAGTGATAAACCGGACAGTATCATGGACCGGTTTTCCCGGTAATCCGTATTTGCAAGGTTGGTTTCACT; site = the 11-nt target
The following ranges of recombinant barcode read abundance (log10) define the classes used here: one = under 0.2, two = from 0.2 up to 0.4, three = 0.4 and over

AGGCTGACTTGGGTTCTAACCTGTTGCCT (site AGGCTGACTAG); three
ATGGGGTCTTGGGTTCTAACCTGTTGCTT (site AAGGGGTCTAA); two

The entry to classify is CGGCATACTTGGGTTCTAACCTGTTGCCT (site CGGCATACTAG) ; which class holds it?
three

Could you do the same for CTAGACTCTTGGGTTCTAACCTGTTGCAT (site CTAGACTCTCT) , please?
three

---

test: recombinant barcode read abundance after kanamycin selection (control-corrected) (log10(CPM+1)); higher = more efficient recombination; sequences stand for … in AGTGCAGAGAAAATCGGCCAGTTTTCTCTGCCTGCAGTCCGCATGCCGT…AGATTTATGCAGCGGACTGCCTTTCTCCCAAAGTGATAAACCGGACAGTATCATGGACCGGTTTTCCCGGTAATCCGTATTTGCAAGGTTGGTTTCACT; site = the 11-nt target
quantity measured: recombinant barcode read abundance (log10)
Output: the number by itself.

GGGGTGTCTTGGGTTCTAACCTGTTGCCG (site GGGGTGTCTCG); 0.675
CCGTACTCTTGGGTTCTAACCTGTTGCCT (site CCGTACTCTAG); 1.22
TGTGAGTCTTGGGTTCTAACCTGTTGCTT (site TGTGAGTCTAG); 0.193
GCCCGGGCTTGGGTTCTAACCTGTTGCCG (site GCCCGGGCTCG); 0.309
GAGTTGCCTTGGGTTCTAACCTGTTGCGG (site GAGTTGCCTCC); 2.32

Which recombinant barcode read abundance (log10) value belongs to TAGGATTCTTGGGTTCTAACCTGTTGCCT (site TAATATTCTAG) ?
0.0335

Entry ATAGGACCTTGGGTTCTAACCTGTTGCCG (site ATAGGACCTTG) please
0.143

What about TCCAATACTTGGGTTCTAACCTGTTGCCG (site TCCAACACTCG) ?
0.0602

Also GCAATTGCTTGGGTTCTAACCTGTTGCCT (site GCAATTGCTAG) , if possible.
0.458

Proceed to GGTGGGTCTTGGGTTCTAACCTGTTGCTT (site GGTGGGTCTAT)
1.69

---

test: recombinant barcode read abundance after kanamycin selection (control-corrected) (log10(CPM+1)); higher = more efficient recombination; sequences stand for … in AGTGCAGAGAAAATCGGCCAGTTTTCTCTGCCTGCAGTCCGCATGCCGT…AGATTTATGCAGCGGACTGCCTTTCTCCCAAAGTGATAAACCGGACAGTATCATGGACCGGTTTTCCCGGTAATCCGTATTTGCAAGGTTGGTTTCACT; site = the 11-nt target
quantity measured: recombinant barcode read abundance (log10)

Consider the reported recombinant barcode read abundance (log10) for these sequences:
CTACTATCTTGGGTTCTAACCTGTTGCGT (site CTACTATCTAC); 1.58
GAGCGGACTTGGGTTCTAACCTGTTGCCT (site GAGCGGACTAG); 1.68

Bench note: what recombinant barcode read abundance (log10) did TTCTACCCTTGGGTTCTAACCTGTTGCCT (site TCCTACCCTAG) show?
0.149

Note, next up: GGGTCCACTTGGGTTCTAACCTGTTGCGG (site GGGTCCACTTG)
0.143

Next sequence: CCTCAGGCTTGGGTTCTAACCTGTTGCCA (site CCTCAGGCTGG)
0.217

Now try CCTGGTCCTTGGGTTCTAACCTGTTGCCT (site CCTGGGGCTAG) .
0.16

---

test: recombinant barcode read abundance after kanamycin selection (control-corrected) (log10(CPM+1)); higher = more efficient recombination; sequences stand for … in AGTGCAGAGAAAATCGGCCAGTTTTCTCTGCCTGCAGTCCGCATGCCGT…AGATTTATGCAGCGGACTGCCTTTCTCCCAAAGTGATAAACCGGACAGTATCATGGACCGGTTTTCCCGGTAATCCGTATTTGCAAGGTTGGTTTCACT; site = the 11-nt target
Output Met for recombinant barcode read abundance (log10) not less than 0.3; output Not met otherwise.

ATGTCTGCTTGGGTTCTAACCTGTTGCCT (site ATGTCTGCTAG); Met
GTCGTTCCTTGGGTTCTAACCTGTTGCCT (site GTCGTTCCTAG); Not met
ATGGGCCCTTGGGTTCTAACCTGTTGCTG (site ATGGGCCCTTA); Met
GTAGGCGCTTGGGTTCTAACCTGTTGCCT (site GTAGGCGCTAG); Met
ACGGAGACTTGGGTTCTAACCTGTTGCAT (site ACGGAGACTAT); Met

With those in mind, consider the next sequence.
// inclusive: recombinant barcode read abundance (log10) at least 0.3? input: TCTATGTCTTGGGTTCTAACCTGTTGCCT (site TCTATGTCTAG)
Not met

---

Reported recombinant barcode read abundance (log10) values for a set of sequences
test: recombinant barcode read abundance after kanamycin selection (control-corrected) (log10(CPM+1)); higher = more efficient recombination; sequences stand for … in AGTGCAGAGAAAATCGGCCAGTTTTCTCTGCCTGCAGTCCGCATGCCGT…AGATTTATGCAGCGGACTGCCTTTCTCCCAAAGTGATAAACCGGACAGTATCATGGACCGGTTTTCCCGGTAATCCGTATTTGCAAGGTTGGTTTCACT; site = the 11-nt target
Quick one: just the number, no unit, thanks!

TCGGACCCTTGGGTTCTAACCTGTTGCGA (site TCGCACCCTTC); 0.12
TCGGATGCTTGGGTTCTAACCTGTTGCTT (site TCGGATGCTAA); 0.901
TCCTAAGCTTGGGTTCTAACCTGTTGCTA (site TCCAAAGCTTA); 0.05
CTAGGACCTTGGGTTCTAACCTGTTGCCA (site CTAGGAGCTAG); 0.233

Name the recorded recombinant barcode read abundance (log10) for GAGCCTCCTTGGGTTCTAACCTGTTGCAT (site GAGCCTCCTAT) .
1.81

---

test: recombinant barcode read abundance after kanamycin selection (control-corrected) (log10(CPM+1)); higher = more efficient recombination; sequences stand for … in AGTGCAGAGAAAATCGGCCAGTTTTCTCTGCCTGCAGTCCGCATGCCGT…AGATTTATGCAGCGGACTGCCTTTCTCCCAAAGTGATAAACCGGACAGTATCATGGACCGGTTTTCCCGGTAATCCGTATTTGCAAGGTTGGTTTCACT; site = the 11-nt target
# recombinant barcode read abundance (log10) >= 0.3 gives rule met, anything below gives rule not met

# example entries with known answers
AACCACTCTTGGGTTCTAACCTGTTGCCT (site CACCACTCTAG); rule met
GTGTGTCCTTGGGTTCTAACCTGTTGCCT (site GTGTGTACTAG); rule not met
ACGGGGCCTTGGGTTCTAACCTGTTGCCG (site ACGGGGCCTCG); rule met
GTGGCTTCTTGGGTTCTAACCTGTTGCCT (site GAGGCTTCTAG); rule not met
ACATGATCTTGGGTTCTAACCTGTTGCCT (site ACATGATCTAG); rule met
ATTTGAGCTTGGGTTCTAACCTGTTGCTG (site GTATGAGCTCA); rule not met
AGAAGTCCTTGGGTTCTAACCTGTTGCTG (site AGAAGTCCTCA); rule met
CTACGTCCTTGGGTTCTAACCTGTTGCTA (site CTACGTCCTGA); rule met

Does the sequence CAGGTACCTTGGGTTCTAACCTGTTGCAT (site CAGGTACCTAT) have recorded recombinant barcode read abundance (log10) that is 0.3 or more?
rule met

And for TAGGATACTTGGGTTCTAACCTGTTGCAC (site TAGGATACTAT) ?
rule met

The reported numbers originate from the supplement of paper PMC11208160.
